target: Histone deacetylase 2 (Homo sapiens, UniProt Q92769); experiment: Inhibition of full-length recombinant human C-terminal GST tagged HDAC2 expressed in Sf9 insect cells using aminoluciferin peptide substrate at 100 nM preincubated for 3 hrs followed by substrate addition and measured after 30 mins by HDAC-Glo I/II chemiluminescence assay; settings: time 3.5 hrs
Sequence (Q92769 whole entry): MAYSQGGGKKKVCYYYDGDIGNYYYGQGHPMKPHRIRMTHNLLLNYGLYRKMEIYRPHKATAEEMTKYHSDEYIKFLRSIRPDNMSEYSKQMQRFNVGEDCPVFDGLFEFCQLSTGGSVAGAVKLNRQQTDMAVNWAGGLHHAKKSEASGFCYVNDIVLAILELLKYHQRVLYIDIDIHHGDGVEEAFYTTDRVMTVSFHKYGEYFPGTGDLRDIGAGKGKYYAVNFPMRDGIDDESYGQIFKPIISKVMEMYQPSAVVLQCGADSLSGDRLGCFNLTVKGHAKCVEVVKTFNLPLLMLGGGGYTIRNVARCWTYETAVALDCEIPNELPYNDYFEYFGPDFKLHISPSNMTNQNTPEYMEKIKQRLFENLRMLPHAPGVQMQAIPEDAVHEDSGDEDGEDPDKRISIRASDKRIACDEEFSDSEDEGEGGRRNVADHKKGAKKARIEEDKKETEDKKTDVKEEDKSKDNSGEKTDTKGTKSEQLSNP
ATTRIBUTE MEASURED: inhibition (%)

Examples from the recorded data:
compound_smiles=Nc1ccc(-c2ccc(F)cc2)cc1NC(=O)CCc1cn(-c2ccc(Br)cc2)nn1 attribute_measured=inhibition value_measured=0
compound_smiles=CCc1ccc(Cn2cc(C(=O)Nc3cc(-c4ccccc4)ccc3N)nn2)cc1 attribute_measured=inhibition value_measured=0
compound_smiles=COc1ccccc1CCn1cc(C(=O)Nc2cc(-c3ccsc3)ccc2N)nn1 attribute_measured=inhibition value_measured=0
compound_smiles=Nc1ccc(-c2ccsc2)cc1NC(=O)CCc1cn(Cc2cccc(C(=O)O)c2)nn1 attribute_measured=inhibition value_measured=0
compound_smiles=Nc1ccc(-c2ccc(F)cc2)cc1NC(=O)CCc1cn(CCc2cccc(Cl)c2)nn1 attribute_measured=inhibition value_measured=17

1. Nc1ccc(-c2ccsc2)cc1NC(=O)c1cn(-c2ccc(O)cc2)nn1
2. Cc1csc(CCn2cc(CCC(=O)Nc3cc(-c4cccnc4)ccc3N)nn2)n1
Problem: Determine, for 1 and 2 , which has the greater value of inhibition. Which one? Tell me its label.
Result: 2
(2: 6%, 1: 2%)

###

target: Histone deacetylase 2 (Homo sapiens, UniProt Q92769); test: Inhibition of full-length recombinant human C-terminal GST tagged HDAC2 expressed in Sf9 insect cells using aminoluciferin peptide substrate at 100 nM preincubated for 3 hrs followed by substrate addition and measured after 30 mins by HDAC-Glo I/II chemiluminescence assay; conditions: time 3.5 hrs
ATTRIBUTE MEASURED: inhibition (%)

Field: example entries. Status: answers known.
compound_smiles=Nc1ccc(-c2ccsc2)cc1NC(=O)c1cn(Cc2cccc3ccccc23)nn1 attribute_measured=inhibition value_measured=4
compound_smiles=Nc1ccc(-c2cccs2)cc1NC(=O)CCc1cn(CCc2ccccc2)nn1 attribute_measured=inhibition value_measured=26

I. COc1ccc(CCn2cc(-c3ccc(C(=O)Nc4cc(-c5cccs5)ccc4N)cc3)nn2)cc1
II. Nc1ccc(-c2cccs2)cc1NC(=O)CCc1cn(Cc2cc3ccccc3s2)nn1
Problem: Hey, between I and II which has a smaller measured inhibition? Could you answer with the label of the item you picked?
Result: II
(II: 27%, I: 40%)

###

target: Histone deacetylase 2 (Homo sapiens, UniProt Q92769); assay: Inhibition of full-length recombinant human C-terminal GST tagged HDAC2 expressed in Sf9 insect cells using aminoluciferin peptide substrate at 100 nM preincubated for 3 hrs followed by substrate addition and measured after 30 mins by HDAC-Glo I/II chemiluminescence assay; conditions: time 3.5 hrs
ATTRIBUTE MEASURED: inhibition (%)

Example compounds with recorded inhibition:
compound_smiles=Nc1ccc(-c2cccnc2)cc1NC(=O)CCc1cn(CCC2CCCCC2)nn1 experimental_system="Histone deacetylase 2 (Homo sapiens, UniProt Q92769)" attribute_measured=inhibition value_measured=5
compound_smiles=Nc1ccc(-c2cccs2)cc1NC(=O)c1cn(CCCCCc2ccccc2)nn1 experimental_system="Histone deacetylase 2 (Homo sapiens, UniProt Q92769)" attribute_measured=inhibition value_measured=1

a. Nc1ccc(-c2cccs2)cc1NC(=O)c1ccc(-c2cn(Cc3ccc4ccccc4n3)nn2)s1
b. Nc1ccc(-c2ccsc2)cc1NC(=O)CCc1cn(/C=C/c2ccccc2)nn1
c. Nc1ccc(-c2cccs2)cc1NC(=O)c1cccc(-c2cn(-c3ccc(Br)cc3)nn2)c1
Problem: Please list these compounds in decreasing order of inhibition. Sort the labels as requested; that list is your answer.
Result: a, b, c
(a: 30%, b: 2%, c: 0%)

a. Nc1ccc(-c2ccsc2)cc1NC(=O)c1cn(CCCc2ccccc2)nn1
b. Nc1ccc(-c2ccc(F)cc2)cc1NC(=O)c1cn(Cc2ccc3ccccc3c2)nn1
Problem: Hi, I'm comparing two records. Which one has the lower inhibition, a or b ? // caller expects the label of the chosen entry
Result: a

P. Nc1ccc(-c2cccs2)cc1NC(=O)c1cccc(-c2cn(CCc3ccccn3)nn2)c1
Q. Nc1ccc(-c2cccs2)cc1NC(=O)CCc1cn(CCCCCc2ccccc2)nn1
Problem: Would you kindly point out which of P and Q has the smaller inhibition figure? Respond with the label that goes with your answer.
Result: Q
(Q: 7%, P: 33%)

a. Nc1ccc(-c2ccc(F)cc2)cc1NC(=O)CCc1cn(CCc2ccccn2)nn1
b. Nc1ccc(-c2cccs2)cc1NC(=O)c1ccc(-c2cn(CCc3ccc([N+](=O)[O-])cc3)nn2)cc1
Problem: Which is greater in inhibition, the first item a or the second item b ? Indicate your choice by writing its label.
Result: b
(b: 42%, a: 18%)

1. CCc1ccc(Cn2cc(CCC(=O)Nc3cc(-c4cccnc4)ccc3N)nn2)cc1
2. Nc1ccc(-c2ccsc2)cc1NC(=O)CCc1cn(CCc2ccccc2C(F)(F)F)nn1
Problem: Of 1 versus 2 , which is the one with smaller reported inhibition? Your answer should be the label attached to the chosen record.
Result: 2
(2: 0%, 1: 5%)
